Data origin, for the record: patent US20260021193A1

# ASSAY INFO: Human hepatocyte clearance (HHEP CL)
# Assay type: in vitro ADME
# Parameters: dose or concentration left out as unconfirmed
# STUDY CONDITIONS: both sexes, human, hepatocytes
Structures can show the parent of a compound that is named as a salt.
// boundary case: CLint scaled equal to 50 mL/min/kg maps to 0; strictly smaller maps to 1

Answer whether the compound CC[C@@]1(O)C(=O)OCc2c1cc1n(c2=O)Cc2c-1nc1cc(F)c(C)c3c1c2[C@](C)(N(C)CCO)CC3 (single isomer, unassigned) [Compound 7-45, hydrochloride] has CLint scaled strictly less than 50 mL/min/kg
0

Is 50 mL/min/kg strictly greater than the compound's reported CLint scaled? compound: CC[C@@]1(O)C(=O)OCc2c1cc1n(c2=O)Cc2c-1nc1cc(F)c(C)c3c1c2[C@@H](CO)CC3 (single isomer, unassigned)
1

For CC[C@@]1(O)C(=O)OCc2c1cc1n(c2=O)Cc2c-1nc1cc(F)c(C)c3c1c2[C@](C)(N1CC[C@@H](O)C1)CC3 (single isomer, unassigned) , is the recorded CLint scaled below the cut-off of 50 mL/min/kg?
0

Given CC[C@@]1(O)C(=O)OCc2c1cc1n(c2=O)Cc2c-1nc1cc(F)c(C)c3c1c2[C@@](C)(CO)CC3 (single isomer, unassigned) , is recorded CLint scaled strictly lower than 50 mL/min/kg?
0

Does this compound meet the criterion CLint scaled < 50 mL/min/kg? CC[C@@]1(O)C(=O)OCc2c1cc1n(c2=O)Cc2c-1nc1cc(F)c(C)c3c1c2[C@](C)(CO)CC3 (single isomer, unassigned)
0

Lab note: confirm whether the reported CLint scaled for this compound is below 50 mL/min/kg, equality not counting. compound: `CC[C@@]1(O)C(=O)OCc2c1cc1n(c2=O)Cc2c-1nc1cc(F)c(C)c3c1c2C(CO)(CO)CC3`
1

Could you please tell me whether CLint scaled recorded for CC[C@@]1(O)C(=O)OCc2c1cc1n(c2=O)Cc2c-1nc1cc(F)c(C)c3c1c2[C@H](CO)CC3 (single isomer, unassigned) is less than 50 mL/min/kg?
1

----------
Kindly state Papp for each of the entries shown.
# ASSAY INFO: PAMPA (Parallel Artificial Membrane Permeability Assay)
# Assay type: physicochemical
# Design: dose or concentration left out as unconfirmed
# STUDY CONDITIONS: pH 5
Numeric only. Scale: ×10⁻⁶ cm/s

I'd like to know its Papp. The molecule in question is CC[C@@]1(O)C(=O)OCc2c1cc1n(c2=O)Cc2c-1nc1cc(F)c(C)c3c1c2[C@H](CCCO)CC3 (single isomer, unassigned)
34.7

Look up Papp: CC[C@@]1(O)C(=O)OCc2c1cc1n(c2=O)Cc2c-1nc1cc(F)c(C)c3c1c2[C@](C)(N1CC[C@H](O)C1)CC3 (single isomer, unassigned)
53.5

So what does the record say about Papp for CC[C@@]1(O)C(=O)OCc2c1cc1n(c2=O)Cc2c-1nc1cc(F)c(C)c3c1c2[C@](C)(COCCO)CC3 (single isomer, unassigned) ?
54.8

// returns reported Papp for input CC[C@@]1(O)C(=O)OCc2c1cc1n(c2=O)Cc2c-1nc1cc(F)c(C)c3c1c2[C@](C)(N1CC[C@@H](O)C1)CC3 (single isomer, unassigned)
52.2

----------
# ASSAY INFO: PAMPA (Parallel Artificial Membrane Permeability Assay)
# Type: physicochemical
# Set-up: dose or concentration left out as unconfirmed
# STUDY CONDITIONS: pH 7.4
# Description: PAMPA is a method which determines the permeability of substances from a donor compartment, through a lipid-infused artificial membrane into an acceptor compartment. […] After an incubation period which may include stirring, the sandwich is separated, and the amount of drug is measured in each compartment. […]
Where a name gives a salt, the structure may show the parent alone.
PROPERTY NAME: Papp (×10⁻⁶ cm/s)
Record the value in ×10⁻⁶ cm/s, omitting the unit from your answer.

I am curious: what Papp value has been reported for CC[C@@]1(O)C(=O)OCc2c1cc1n(c2=O)Cc2c-1nc1cc(F)c(C)c3c1c2[C@@H](CCCO)CC3 (single isomer, unassigned) [Compound 13-64] ?
10.6

Entry under review: CC[C@@]1(O)C(=O)OCc2c1cc1n(c2=O)Cc2c-1nc1cc(F)c(C)c3c1c2[C@@](C)(CCCO)CC3 (single isomer, unassigned) [Compound 15-76] . Reported Papp?
33.2

Request the reported Papp associated with CC[C@@]1(O)C(=O)OCc2c1cc1n(c2=O)Cc2c-1nc1cc(F)c(C)c3c1c2[C@@](C)(CCO)CC3 (single isomer, unassigned) [Compound 14-71]
17.3

Item under review: CC[C@@]1(O)C(=O)OCc2c1cc1n(c2=O)Cc2c-1nc1cc(F)c(C)c3c1c2[C@](C)(CCO)CC3 (single isomer, unassigned) [Compound 14-70] . Reported Papp?
28.5

Any idea what Papp was measured for CC[C@@]1(O)C(=O)OCc2c1cc1n(c2=O)Cc2c-1nc1cc(F)c(C)c3c1c2[C@@H](CO)CC3 (single isomer, unassigned) [Compound 1-17] ?
7.8

Which Papp reading was recorded for the compound CC[C@@]1(O)C(=O)OCc2c1cc1n(c2=O)Cc2c-1nc1cc(F)c(C)c3c1c2[C@](C)(N(C)CCO)CC3 (single isomer, unassigned) [Compound 7-45, hydrochloride] ?
7.5

For CC[C@@]1(O)C(=O)OCc2c1cc1n(c2=O)Cc2c-1nc1cc(F)c(C)c3c1c2[C@@](C)(COCCO)CC3 (single isomer, unassigned) [Compound 16-83] , what is its reported Papp?
25.1

Could you tell me which Papp is on file for CC[C@@]1(O)C(=O)OCc2c1cc1n(c2=O)Cc2c-1nc1cc(F)c(C)c3c1c2[C@H](CCO)CC3 (single isomer, unassigned) [Compound 12-58] ?
3.8
